test-name: chemical genetic growth profiling, strain panel (AID 1159580);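 further: tested at 20 µM; growth read once vehicle control cultures reached saturation at 30 °C; 1 = growth at the plate median or of vehicle wells; lower values mean less growth of the strain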
assay-conditions: S. cerevisiae deletion strains, growth OD, locus YOR184W, strain ser1, hits give low values
In all, about 5,500 compounds went through this assay and about 2,000 (36%) were called active. Roughly 18% stayed inconclusive and do not appear here. The list shows a part of the results.
// classify: if (normalized growth < 1) class 1 else class 0

| compound | class-assignment |
| --- | --- |
| Oc1ccc(Cl)cc1 | class 1 |
| O=S1OCC2C(CO1)C1(Cl)C(Cl)=C(Cl)C2(Cl)C1(Cl)Cl (configuration not stated) | class 1 |
| CCCCNc1ccc(C(=O)OCCN(C)C)cc1 | class 0 |
| COc1ccc(CCN2CCC(Nc3nc4ccccc4n3Cc3ccc(F)cc3)CC2)cc1 | class 1 |
| O=C(O)c1ccccc1-c1c2cc(Br)c(=O)cc-2oc2[c]([Hg])c(O)c(Br)cc12 | class 1 |
| CCCCCCOc1ccccc1C(N)=O | class 1 |
